- Assayed target: Protein skinhead-1 (Caenorhabditis elegans, UniProt P34707)
- Sequence (P34707 whole entry): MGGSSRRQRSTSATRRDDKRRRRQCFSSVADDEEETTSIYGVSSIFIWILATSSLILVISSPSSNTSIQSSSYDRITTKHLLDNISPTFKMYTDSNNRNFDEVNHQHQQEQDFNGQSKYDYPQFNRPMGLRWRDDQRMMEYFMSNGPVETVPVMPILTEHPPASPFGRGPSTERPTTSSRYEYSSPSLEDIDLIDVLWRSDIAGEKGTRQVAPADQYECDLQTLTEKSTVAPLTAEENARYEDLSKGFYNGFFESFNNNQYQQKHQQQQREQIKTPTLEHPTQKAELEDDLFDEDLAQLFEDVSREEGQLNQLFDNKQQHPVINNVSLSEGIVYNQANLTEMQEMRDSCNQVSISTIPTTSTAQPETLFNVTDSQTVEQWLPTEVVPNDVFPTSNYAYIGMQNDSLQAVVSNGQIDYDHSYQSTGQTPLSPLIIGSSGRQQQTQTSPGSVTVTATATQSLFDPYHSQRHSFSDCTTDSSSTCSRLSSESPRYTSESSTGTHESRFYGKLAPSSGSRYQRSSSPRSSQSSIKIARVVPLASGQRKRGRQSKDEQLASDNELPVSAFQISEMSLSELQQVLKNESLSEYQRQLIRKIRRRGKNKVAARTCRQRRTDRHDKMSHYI
- Assay type: functional
Activity calls are given as the source filed them.
Outcome codes: y = active, n = inactive

>  <Compound>
C=C(C)c1cccc(C(C)(C)NC(=O)N2CCN(c3ncccn3)CC2)c1

>  <Discrete label>
n

$$$$
>  <Compound>
CC(O)CC(=O)O (stereo not drawn) [3-HYDROXYBUTYRIC ACID, (+/-)-]

>  <Discrete label>
n

$$$$
>  <Compound>
O=C(c1ccc(-c2cccc(C(F)(F)F)c2)o1)N1CCOCC1

>  <Discrete label>
n

$$$$
>  <Compound>
Cc1ccc(C=Cc2ccccn2)cc1

>  <Discrete label>
y

$$$$
>  <Compound>
O=C(/C=C/c1ccccc1)Nc1ccc(CN2CCOCC2)cc1

>  <Discrete label>
y

$$$$
>  <Compound>
O=C(Nc1ccc(Cl)cc1Cl)c1ccc(Br)o1

>  <Discrete label>
n

$$$$
>  <Compound>
O=C(NC1CCCC1)c1cc(-c2ccccc2)on1

>  <Discrete label>
n

$$$$
>  <Compound>
CCOC(=O)C(C)C1(O)c2ccccc2-c2ncccc21 (configuration not stated)

>  <Discrete label>
n

$$$$
>  <Compound>
O=C1c2ccccc2C(=O)c2c(NCc3cccnc3)cccc21

>  <Discrete label>
n

$$$$
>  <Compound>
NC(=NOC(=O)c1cccc(Cl)c1)c1cccnc1

>  <Discrete label>
n

$$$$
>  <Compound>
O=C1c2ccccc2OC2(C=Cc3ccccc3O2)N1Cc1ccccc1 (configuration not stated)

>  <Discrete label>
n

$$$$
>  <Compound>
O=[N+]([O-])c1ccc(CSc2nc3ccccc3o2)cc1

>  <Discrete label>
n

$$$$

* * *

Recorded AC50 for the following molecules
- Assay protocol: viability loss in CEM21 cells – cell-based, CellTiter-Glo luminescence, cherry-picked, cytotoxicity control for viral fusion inhibitor project, dose response (AID 652042);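 note: potency for signal decrease meaning cytotoxicity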
- Type: functional
The source made the active and inactive calls.

>  <Molecule>
CCN(CC)c1ccc2nc3ccc(N)cc3[n+](-c3ccccc3)c2c1

>  <AC50>
3.25 µM (active)

$$$$
>  <Molecule>
Nc1ccn(C2OC(CO)C(O)C2F)c(=O)n1 (centres undefined)

>  <AC50>
33.2 µM (active)

$$$$
>  <Molecule>
NC(Cc1ccc(F)cc1)c1csc(Nc2ccc(C(F)(F)F)cn2)n1 (centres undefined)

>  <AC50>
9.3 µM (active)

$$$$
>  <Molecule>
Clc1ccccc1C1=Nn2c(nnc2-c2ccncc2)SC1

>  <AC50>
63.6 µM (active)

$$$$

* * *

- Assayed target: Rac GTPase-activating protein 1 (Homo sapiens, UniProt Q9H0H5)
- Sequence (Q9H0H5 whole entry): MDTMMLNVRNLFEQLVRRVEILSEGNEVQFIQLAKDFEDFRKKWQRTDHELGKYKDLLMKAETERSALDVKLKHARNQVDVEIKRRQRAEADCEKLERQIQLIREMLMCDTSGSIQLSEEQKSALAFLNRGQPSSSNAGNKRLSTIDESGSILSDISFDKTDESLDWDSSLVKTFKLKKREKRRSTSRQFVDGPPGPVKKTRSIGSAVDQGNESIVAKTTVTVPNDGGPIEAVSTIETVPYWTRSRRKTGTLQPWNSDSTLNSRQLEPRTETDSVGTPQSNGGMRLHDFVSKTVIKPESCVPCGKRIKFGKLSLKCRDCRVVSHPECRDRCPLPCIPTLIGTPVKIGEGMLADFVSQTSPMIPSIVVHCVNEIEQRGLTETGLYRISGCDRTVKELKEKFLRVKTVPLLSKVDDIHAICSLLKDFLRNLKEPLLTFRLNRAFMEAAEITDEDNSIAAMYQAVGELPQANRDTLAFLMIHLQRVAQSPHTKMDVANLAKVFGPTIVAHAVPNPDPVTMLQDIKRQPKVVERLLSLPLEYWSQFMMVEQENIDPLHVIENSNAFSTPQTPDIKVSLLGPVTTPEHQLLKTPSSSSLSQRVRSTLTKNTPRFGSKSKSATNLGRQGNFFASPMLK
- Assay protocol: blockers of MgcRacGAP-driven Rac1 GTP hydrolysis – biochemical, ADP Hunter fluorescence, primary and confirmatory, confirmation (AID 624330)
- Type: functional
Calls of active or inactive are those of the source.
Recorded IC50 for the following compounds
Measurement label: IC50

>  <Compound>
CCN(CC(=O)Nc1ccc(S(=O)(=O)N2CCCC2)cc1)CC(=O)Nc1cccc(OC)c1

>  <Assayed target>
Rac GTPase-activating protein 1 (Homo sapiens, UniProt Q9H0H5)

>  <Measurement label>
IC50

>  <Observed measurement>
35.5 µM (active)

$$$$
>  <Compound>
COc1ccc(N2CCN(C(=O)CCCn3nnnc3CN3CCOCC3)C(C)C2)cc1 (stereo unspecified)

>  <Assayed target>
Rac GTPase-activating protein 1 (Homo sapiens, UniProt Q9H0H5)

>  <Measurement label>
IC50

>  <Observed measurement>
150 µM (active)

$$$$
>  <Compound>
COc1cc(/C=C/C(=O)OCC(=O)Nc2cccc(F)c2)ccc1O

>  <Assayed target>
Rac GTPase-activating protein 1 (Homo sapiens, UniProt Q9H0H5)

>  <Measurement label>
IC50

>  <Observed measurement>
41.6 µM (active)

$$$$
>  <Compound>
O=C(N/N=C/c1ccc(O)c(O)c1)c1ccc(-n2cnnn2)cc1

>  <Assayed target>
Rac GTPase-activating protein 1 (Homo sapiens, UniProt Q9H0H5)

>  <Measurement label>
IC50

>  <Observed measurement>
18.6 µM (active)

$$$$
>  <Compound>
CCOC(=O)C1CCCN(C(S)=Nc2ccc(Nc3ccccc3)cc2)C1 (stereo unspecified)

>  <Assayed target>
Rac GTPase-activating protein 1 (Homo sapiens, UniProt Q9H0H5)

>  <Measurement label>
IC50

>  <Observed measurement>
51 µM (active)

$$$$
>  <Compound>
COc1ccccc1CN1CCN(Cc2cc(OC)c(OC)cc2OC)CC1

>  <Assayed target>
Rac GTPase-activating protein 1 (Homo sapiens, UniProt Q9H0H5)

>  <Measurement label>
IC50

>  <Observed measurement>
73.5 µM (active)

$$$$
>  <Compound>
CCCCN(C)C(=O)C1CCN(Cc2ccc(OCc3ccccc3)cc2)CC1

>  <Assayed target>
Rac GTPase-activating protein 1 (Homo sapiens, UniProt Q9H0H5)

>  <Measurement label>
IC50

>  <Observed measurement>
204 µM (active)

$$$$
>  <Compound>
COc1cc(/C=C2\SC(=S)N(NC(=O)c3ccncc3)C2=O)ccc1O

>  <Assayed target>
Rac GTPase-activating protein 1 (Homo sapiens, UniProt Q9H0H5)

>  <Measurement label>
IC50

>  <Observed measurement>
48.1 µM (active)

$$$$
>  <Compound>
CCOc1cc(NC(=O)c2ccccc2C(=O)O)c(OCC)cc1NC(=O)c1ccccc1F

>  <Assayed target>
Rac GTPase-activating protein 1 (Homo sapiens, UniProt Q9H0H5)

>  <Measurement label>
IC50

>  <Observed measurement>
54.8 µM (active)

$$$$
>  <Compound>
CCOc1cc(/C=N/NC(=O)CCc2nnc(O)nc2O)ccc1O

>  <Assayed target>
Rac GTPase-activating protein 1 (Homo sapiens, UniProt Q9H0H5)

>  <Measurement label>
IC50

>  <Observed measurement>
59.5 µM (active)

$$$$
>  <Compound>
COc1cc(/C=C2\SC(=S)N(Nc3ccccc3)C2=O)ccc1O

>  <Assayed target>
Rac GTPase-activating protein 1 (Homo sapiens, UniProt Q9H0H5)

>  <Measurement label>
IC50

>  <Observed measurement>
55.7 µM (active)

$$$$
>  <Compound>
Cc1cc(C)nc(SCC(=O)c2ccc(O)c(O)c2)n1

>  <Assayed target>
Rac GTPase-activating protein 1 (Homo sapiens, UniProt Q9H0H5)

>  <Measurement label>
IC50

>  <Observed measurement>
30.6 µM (active)

$$$$
>  <Compound>
COc1ccccc1-n1c(=O)c2c3c(sc2n2c(S)nnc12)CCC3

>  <Assayed target>
Rac GTPase-activating protein 1 (Homo sapiens, UniProt Q9H0H5)

>  <Measurement label>
IC50

>  <Observed measurement>
50.3 µM (active)

$$$$
>  <Compound>
CCOc1cc(/C=C/c2cccc[n+]2C)ccc1O

>  <Assayed target>
Rac GTPase-activating protein 1 (Homo sapiens, UniProt Q9H0H5)

>  <Measurement label>
IC50

>  <Observed measurement>
22.9 µM (active)

$$$$
>  <Compound>
Cc1c(Cl)cccc1Nc1nnc(S)s1

>  <Assayed target>
Rac GTPase-activating protein 1 (Homo sapiens, UniProt Q9H0H5)

>  <Measurement label>
IC50

>  <Observed measurement>
108 µM (active)

$$$$
>  <Compound>
C/C(=N\Nc1nc2ccccc2[nH]1)c1ccc(C)o1

>  <Assayed target>
Rac GTPase-activating protein 1 (Homo sapiens, UniProt Q9H0H5)

>  <Measurement label>
IC50

>  <Observed measurement>
69 µM (active)

$$$$
